assay: Human pharmacokinetic study (oral, intravenous, intranasal cross-over); details: male, plasma, iv, 1 mg
Readout: Cmax (ng/mL)
# number only, unit ng/mL dropped from output

Query :: Suppose we examine the compound O=C1CN=C(c2ccccc2Cl)c2cc([N+](=O)[O-])ccc2N1 [Clonazepam] ; what Cmax value has been reported?
Result :: 42.5

* * *

assay: Solubilities of clonazepam in water-containing solvents; assay type: physicochemical; settings: 25 °C, pH 6.8, aqueous with cosolvent or surfactant or cyclodextrin, kinetic from dmso stock, Diethylene glycol monoethyl ether 40% solvent, 60% pH6.8 buffered water
Readout: solubility (µg/mL)
# number only, unit µg/mL dropped from output

Query :: Suppose we examine the molecule O=C1CN=C(c2ccccc2Cl)c2cc([N+](=O)[O-])ccc2N1 [Clonazepam] ; what solubility value has been reported?
Result :: 520

* * *

assay: Solubilities of clonazepam in water-containing solvents; format: physicochemical; settings: 25 °C, pH 6.8, aqueous with cosolvent or surfactant or cyclodextrin, kinetic from dmso stock, Di (ethylene glycol) methyl ether 20% solvent, 80% pH6.8 buffered water
Readout: solubility

Query :: Suppose we examine the molecule `O=C1CN=C(c2ccccc2Cl)c2cc([N+](=O)[O-])ccc2N1` ; what solubility value has been reported?
Result :: 260 µg/mL

* * *

assay: Human pharmacokinetic study (oral, intravenous, intranasal cross-over); conditions: male, plasma, iv, 1 mg
Readout: AUC

Query :: Suppose we examine the compound O=C1CN=C(c2ccccc2Cl)c2cc([N+](=O)[O-])ccc2N1 [Clonazepam] ; what AUC value has been reported?
Result :: ~106 ng·h/mL

* * *

test: Solubilities of clonazepam in glycol ethers at 3 temperatures; conditions: diethylene glycol monoethyl ether (DEGEE), neat solvent, 25 °C, organic solvent or mixture, thermodynamic from solid
Readout: solubility (mg/mL)
# number only, unit mg/mL dropped from output

Query :: Suppose we examine the molecule `O=C1CN=C(c2ccccc2Cl)c2cc([N+](=O)[O-])ccc2N1` ; what solubility value has been reported?
Result :: 41.8

* * *

test: Human pharmacokinetic study (oral, intravenous, intranasal cross-over); conditions: male, plasma, intravenous, 1 mg
Readout: Tmax

Query :: Suppose we examine the molecule O=C1CN=C(c2ccccc2Cl)c2cc([N+](=O)[O-])ccc2N1 [Clonazepam] ; what Tmax value has been reported?
Result :: 6 min

* * *

test: Solubility of clonazepam in binary solvent mixtures; details: triacetin/glycofurol 50:50 mixture, 25 °C, organic solvent or mixture, thermodynamic from solid
Readout: solubility at 16 h

Query :: Suppose we examine the compound `O=C1CN=C(c2ccccc2Cl)c2cc([N+](=O)[O-])ccc2N1` ; what solubility at 16 h value has been reported?
Result :: ~36.4 mg/mL

* * *

experiment: Human pharmacokinetic study (oral, intravenous, intranasal cross-over); conditions: male, plasma, inhaled or intranasal, 1 mg
Readout: Tmax (min)
# number only, unit min dropped from output

Query :: Suppose we examine the compound `O=C1CN=C(c2ccccc2Cl)c2cc([N+](=O)[O-])ccc2N1` ; what Tmax value has been reported?
Result :: 12

* * *

assay: Solubility of clonazepam in glycol ethers at 25° C.; details: diethylene glycol monoethyl ether (DEGEE), neat solvent, organic solvent or mixture, thermodynamic from solid
Readout: solubility (mg/mL)
# number only, unit mg/mL dropped from output

Query :: Suppose we examine the compound O=C1CN=C(c2ccccc2Cl)c2cc([N+](=O)[O-])ccc2N1 [Clonazepam] ; what solubility value has been reported?
Result :: 41.8

* * *

experiment: Human pharmacokinetic study (oral, intravenous, intranasal cross-over); details: male, plasma, other: intranasal, 1 mg, bioavailability relative to intravenous, intranasal 1 mg
Readout: bioavailability
Please format your answer as a value with the unit trailing.

Query :: Suppose we examine the molecule `O=C1CN=C(c2ccccc2Cl)c2cc([N+](=O)[O-])ccc2N1` ; what bioavailability value has been reported?
Result :: 55%

* * *

assay: Solubilities of clonazepam in water-containing solvents; type: physicochemical; details: 25 °C, pH 6.8, aqueous with cosolvent or surfactant or cyclodextrin, kinetic from dmso stock, Diethylene glycol monoethyl ether 80% solvent, 20% pH6.8 buffered water
Readout: solubility (mg/mL)
# number only, unit mg/mL dropped from output

Query :: Suppose we examine the compound `O=C1CN=C(c2ccccc2Cl)c2cc([N+](=O)[O-])ccc2N1` ; what solubility value has been reported?
Result :: 21.8

* * *

assay: Solubilities of clonazepam in glycol ethers at 3 temperatures; details: di(ethylene glycol) diethyl ether, neat solvent, 5 °C, organic solvent or mixture, thermodynamic from solid
Readout: solubility (mg/mL)
# number only, unit mg/mL dropped from output

Query :: Suppose we examine the compound O=C1CN=C(c2ccccc2Cl)c2cc([N+](=O)[O-])ccc2N1 [Clonazepam] ; what solubility value has been reported?
Result :: 18.5

* * *

assay: Solubilities of clonazepam in water-containing solvents; assay type: physicochemical; conditions: 1,2-dimethyxoethane / pH 6.8 buffered water mixture (80:20), 25 °C, pH 6.8, aqueous with cosolvent or surfactant or cyclodextrin, kinetic from dmso stock, 1,2-dimethyxoethane 80% solvent, 20% pH6.8 buffered water, 25° C.
Readout: solubility (mg/mL)
# number only, unit mg/mL dropped from output

Query :: Suppose we examine the compound `O=C1CN=C(c2ccccc2Cl)c2cc([N+](=O)[O-])ccc2N1` ; what solubility value has been reported?
Result :: 29.6

* * *

assay: Solubilities of clonazepam in water-containing solvents; assay type: physicochemical; conditions: 25 °C, pH 6.8, aqueous with cosolvent or surfactant or cyclodextrin, kinetic from dmso stock, Di (ethyleneglycol) diethyl ether 40% solvent, 60% pH6.8 buffered water
Readout: solubility (µg/mL)
# number only, unit µg/mL dropped from output

Query :: Suppose we examine the molecule `O=C1CN=C(c2ccccc2Cl)c2cc([N+](=O)[O-])ccc2N1` ; what solubility value has been reported?
Result :: 1230

* * *

Experiment: Solubilities of clonazepam in glycol ethers at 3 temperatures
Conditions: diethylene glycol monoethyl ether, neat solvent, -15 °C, organic solvent or mixture, thermodynamic from solid
Protocol: The vials were then centrifuged at −5° C. and 5° C. for the −15° C. and 5° C. samples, respectively, at 5000 rpm for 2 minutes.
Readout: solubility (mg/mL)
# number only, unit mg/mL dropped from output

Query :: Suppose we examine the molecule O=C1CN=C(c2ccccc2Cl)c2cc([N+](=O)[O-])ccc2N1 [Clonazepam] ; what solubility value has been reported?
Result :: 43.3

* * *

assay: Solubilities of clonazepam in water-containing solvents; type: physicochemical; conditions: 1,2-dimethyxoethane / pH 6.8 buffered water mixture (20:80), 25 °C, pH 6.8, aqueous with cosolvent or surfactant or cyclodextrin, kinetic from dmso stock, 1,2-dimethyxoethane 20% solvent, 80% pH6.8 buffered water, 25° C.
Readout: solubility (µg/mL)
# number only, unit µg/mL dropped from output

Query :: Suppose we examine the compound O=C1CN=C(c2ccccc2Cl)c2cc([N+](=O)[O-])ccc2N1 [Clonazepam] ; what solubility value has been reported?
Result :: 180

* * *

experiment: Drug recovery, degradation and binding to nasal sheep mucosa; type: in vitro ADME; conditions: sheep nasal mucosa (excised tissue) in buffer, 37° C., buffer pH 7 (10% ethanol), 24 h, read-out: % recovery in the presence of nasal sheep mucosa
recovery at 24 h, 10 μg/mL values by entry
# number only, unit % dropped from output

Solved entries (count: 2):
{"columns": ["Compound", "recovery at 24 h, 10 μg/mL / %"],
 "data": [
  ["O=C1CN=C(c2ccccc2Cl)c2cc([N+](=O)[O-])ccc2N1 [Clonazepam]", 99.3],
  ["O=C1Nc2ccc(Cl)cc2C(c2ccccc2Cl)=NC1O (stereo not drawn) [Lorazepam]", 96.2]
]}

Query :: Suppose we examine the compound CN1C(=O)CN=C(c2ccccc2)c2cc(Cl)ccc21 [Diazepam] ; what recovery at 24 h, 10 μg/mL value has been reported?
Result :: 97.6

* * *

assay: Human pharmacokinetic study (oral, intravenous, intranasal cross-over); settings: male, plasma, inhaled or intranasal, 1 mg
Readout: AUC

Query :: Suppose we examine the compound O=C1CN=C(c2ccccc2Cl)c2cc([N+](=O)[O-])ccc2N1 [Clonazepam] ; what AUC value has been reported?
Result :: ~58 ng·h/mL

* * *

Test: Solubilities of clonazepam in glycol ethers at 3 temperatures
Conditions: di(ethylene glycol) diethyl ether, neat solvent, 25 °C, organic solvent or mixture, thermodynamic from solid
Method: The vials were then centrifuged at −5° C. and 5° C. for the −15° C. and 5° C. samples, respectively, at 5000 rpm for 2 minutes.
Readout: solubility (mg/mL)
# number only, unit mg/mL dropped from output

Query :: Suppose we examine the compound `O=C1CN=C(c2ccccc2Cl)c2cc([N+](=O)[O-])ccc2N1` ; what solubility value has been reported?
Result :: 19

* * *

assay: Drug recovery, degradation and binding to nasal sheep mucosa; format: in vitro ADME; conditions: sheep nasal mucosa (excised tissue) in buffer, 37° C., buffer pH 5 (10% ethanol), 48 h, read-out: % recovery in the presence of nasal sheep mucosa
Readout: recovery at 48 h, 10 μg/mL (%)
# number only, unit % dropped from output

{"columns": ["Compound", "recovery at 48 h, 10 μg/mL, %"],
 "data": [
  ["CN1C(=O)CN=C(c2ccccc2)c2cc(Cl)ccc21", 95.6],
  ["O=C1Nc2ccc(Cl)cc2C(c2ccccc2Cl)=NC1O (stereo not drawn)", 94.9]
]}

In the following, a different compound is considered.
Query :: Suppose we examine the compound `O=C1CN=C(c2ccccc2Cl)c2cc([N+](=O)[O-])ccc2N1` ; what recovery at 48 h, 10 μg/mL value has been reported?
Result :: 96.5
